- tested_target: recombinant eIF4E (Homo sapiens (Human), UniProt P06730)
- Sequence (P06730 whole entry): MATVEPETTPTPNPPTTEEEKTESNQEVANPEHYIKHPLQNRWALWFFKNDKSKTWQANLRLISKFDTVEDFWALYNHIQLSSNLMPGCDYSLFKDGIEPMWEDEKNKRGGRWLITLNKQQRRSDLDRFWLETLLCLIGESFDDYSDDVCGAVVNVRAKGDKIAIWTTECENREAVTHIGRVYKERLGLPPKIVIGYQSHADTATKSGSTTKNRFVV
- test_details: Fluorescence polarization competition assay for eIF4E binding potency
- experimental_context: inhibition of eIF4E/EDA-m7GDP-ATTO-550 binding by 50%; Table 4B calculated values; read-out: IC50
measurement_type: pIC50
pIC50 here: minus log base 10 of the concentration, concentration in moles per litre.

Q: Sample Cc1cc(-c2cc(Cl)ccc2OCCn2c(C)nc3ccc(N(C)C)nc3c2=O)c2scc(C(=O)O)c2n1 — what was its pIC50?
Result: 6.80

Q: How about Cc1ncc(F)cc1-c1c(C(F)(F)F)cc2nc(C)n(CCOc3ccc(Cl)cc3-c3ccnc4c(C(=O)O)csc34)c(=O)c2c1C#N ?
Result: 7.36

Q: Entry N#Cc1cc2c(=O)n(CCOc3ccc(Cl)cc3-c3cnc(C(=O)O)s3)cnc2cn1 please
Result: 5.64

Q: Then N#Cc1cc2c(=O)n(CCOc3ccc(Cl)cc3-c3cc(C(=O)O)c(F)cc3F)cnc2cn1 ?
Result: 4.30

Q: Now try Cc1nc2c(S(=O)(=O)N(C)C)ccc(C#N)c2c(=O)n1CCOc1ccc(Cl)cc1-c1ccnc2c(C(=O)O)csc12 .
Result: 7.26

Q: Record: CS(=O)(=O)c1cc(C#N)c2c(=O)n(CCOc3ccc(Cl)cc3-c3cccc(C(=O)O)c3)c(CF)nc2c1
Result: 7.54

Q: # iterate: Cc1nc2cnc(C3CCN(CC(F)(F)F)CC3)c(C#N)c2c(=O)n1CCOc1ccc(Cl)cc1-c1ccnc2c(C(=O)O)csc12
Result: 7.87

Q: N#Cc1cc2c(=O)n(CCOc3ccc(Cl)cc3-c3ccc(OC(F)F)c(C(=O)O)c3)cnc2cn1 ?
Result: 6.36

Q: Same question, Cc1nc2cnc(N3CC4(CC(N(C)C5CC5)C4)C3)c(C#N)c2c(=O)n1CCOc1ccc(Cl)cc1-c1ccnc2c(C(=O)O)csc12 this time
Result: 8.34

Q: // same read-out, input: Cc1nc2cc(C(F)(F)F)cc(C#N)c2c(=O)n1C/C=C/c1ccc(Cl)cc1-c1cccc(C(=O)O)c1
Result: 7.02

Q: Follow-up item: N#Cc1cc2c(=O)n(CCOc3ccc(Cl)cc3-c3ccc(C#N)c(C(=O)O)c3)cnc2cn1
Result: 5.85

Q: // query: Cc1cc(-c2cc(Cl)ccc2OCCn2c(C)nc3cc4c(c(C#N)c3c2=O)CCC4N(C)C)c2scc(C(=O)O)c2n1 (centres unmarked)
Result: 8.10

Q: Further, for Cc1cc(-c2cc(Cl)ccc2C#CCn2c(C)nc3cnc(C#N)cc3c2=O)c2scc(C(=O)O)c2n1 ?
Result: 7.21

Q: Now the molecule O=C(O)c1cccc(-c2cc(Cl)ccc2OCCn2cnc3cnc(Sc4ccccc4)cc3c2=O)c1
Result: 6.04
